Here we gather pKi data for Histamine H3 receptor (Mus musculus) reported by several publications.
// pKi here means minus log10 of the molar concentration (mol/L)

INSERT INTO results (smiles_representation, system_name, assay_value) VALUES
  ('Nc1nc(N2CCNCC2)c2ccc(-c3ccco3)cc2n1', 'Histamine H3 receptor (Mus musculus)', 5.97),
  ('COc1cccc2c1O[C@@H](c1ccc(OCCCN3CCCC3)cc1)[C@H](C)S2(=O)=O', 'Histamine H3 receptor (Mus musculus)', 8.23),
  ('Cn1c(-c2ccc(OCCCN3CCCC3)cc2)nc2ccccc2c1=O', 'Histamine H3 receptor (Mus musculus)', 8.62);

pKi of N#Cc1ccc2c(c1)CN(C1CCN(C(=O)C3(F)CCN(Cc4ccnc(N)c4)CC3)CC1)CC2 , assay on Histamine H3 receptor (Mus musculus), is 8.70

Param item: Nc1cc(CN2CCC(F)(C(=O)N3CCC(N4CCc5ccccc5CC4)CC3)CC2)ccn1 ; param system: Histamine H3 receptor (Mus musculus); output pKi: 8.52
